This collection of values is drawn from ChEMBL document CHEMBL4038284.

System: Candida albicans
Test: Growth inhibition of Candida albicans ATCC 10231 at 3.4 ug/ml incubated for 48 hrs under dark condition by broth microdilution method relative to control
Type: functional
Settings: ATCC 10231, 48 h, read-out: GI
METRIC: inhibition of growth at 3.4 µg/mL (%)
State the answer as a number, implicitly in %.

// known answers, use as guide
[[record]]
compound = "Cc1ccc(C2=NN(c3ccc(Cl)cc3)C(c3cccc(Nc4ccnc5cc(Cl)ccc45)c3)C2)cc1 (stereo not given)"
recorded_number = 0

[[record]]
compound = "Cc1ccc(C2=NN(c3cc(Cl)cc(Cl)c3)C(c3cccc(Nc4ccnc5cc(Cl)ccc45)c3)C2)cc1 (stereo not given)"
recorded_number = 0

[[record]]
compound = "COc1ccc(C2=NN(c3ccc(Cl)cc3)C(c3cccc(Nc4ccnc5cc(Cl)ccc45)c3)C2)cc1 (stereo not given)"
recorded_number = 0

[[record]]
compound = "CC(=O)N1N=C(c2ccc(Cl)cc2)CC1c1cccc(Nc2ccnc3cc(Cl)ccc23)c1 (stereo not given)"
recorded_number = 14.7


QUERY: // lookup inhibition of growth at 3.4 µg/mL | system=Candida albicans | key= "O=C(/C=C/c1cccc(Nc2ccnc3cc(Cl)ccc23)c1)c1ccccc1"
RESULT: 21.5
